The reported measurements were obtained from BigSolDB 2.1.

conditions: in 2-ethoxyethanol, 343.35 K
METRIC_NAME: solubility (mole fraction)

INSERT INTO measurements (smiles, metric_name, experimental_result) VALUES
  ('CP(=O)(O)c1ccccc1', 'solubility (mole fraction)', 0.639);

* * *

conditions: in acetone, 293.35 K
METRIC_NAME: solubility (mole fraction)

INSERT INTO assay_data (smiles, experimental_result) VALUES
  ('O=[PH](O)c1ccccc1', 0.0305);

* * *

conditions: in ethanol, 318.45 K
METRIC_NAME: solubility (mole fraction)

INSERT INTO assay_data (smiles, experimental_result) VALUES
  ('CP(=O)(O)c1ccccc1', 0.614);

* * *

settings: in ethyl acetate, 293.15 K
METRIC_NAME: solubility (mole fraction)

INSERT INTO measurements (smiles, metric_name, experimental_result) VALUES
  ('CP(=O)(O)c1ccccc1', 'solubility (mole fraction)', 0.0621);

* * *

settings: in chloroform, 308.35 K
METRIC_NAME: solubility (mole fraction)

INSERT INTO results (smiles, experimental_result) VALUES
  ('CP(=O)(O)c1ccccc1', 0.188);

* * *

conditions: in toluene, 323.55 K
METRIC_NAME: solubility (mole fraction)

INSERT INTO results (smiles, experimental_result) VALUES
  ('c1ccc(OP2(Oc3ccccc3)=NP(Oc3ccccc3)(Oc3ccccc3)=NP(Oc3ccccc3)(Oc3ccccc3)=N2)cc1', 0.15);

* * *

Each record here notes measured solubility (mole fraction).
conditions: in ethanol, 313.45 K
METRIC_NAME: solubility (mole fraction)

INSERT INTO assay_data (smiles, experimental_result) VALUES
  ('O=[PH](O)c1ccccc1', 0.297),
  ('c1ccc(OP2(Oc3ccccc3)=NP(Oc3ccccc3)(Oc3ccccc3)=NP(Oc3ccccc3)(Oc3ccccc3)=N2)cc1', 0.0119);

* * *

conditions: in diethyl ether, 306.05 K
METRIC_NAME: solubility (mole fraction)

INSERT INTO measurements (smiles, experimental_result) VALUES
  ('c1ccc(OP2(Oc3ccccc3)=NP(Oc3ccccc3)(Oc3ccccc3)=NP(Oc3ccccc3)(Oc3ccccc3)=N2)cc1', 0.0211);

* * *

conditions: in benzene, 299.15 K
METRIC_NAME: solubility (mole fraction)

INSERT INTO results (smiles, experimental_result) VALUES
  ('O=[PH](O)c1ccccc1', 0.054);

* * *

conditions: in 2-ethoxyethanol, 358.55 K
METRIC_NAME: solubility (mole fraction)

INSERT INTO assay_data (smiles, experimental_result) VALUES
  ('O=[PH](O)c1ccccc1', 0.434);

* * *

conditions: in ethyl acetate, 328.15 K
METRIC_NAME: solubility (mole fraction)

INSERT INTO assay_data (smiles, metric_name, experimental_result) VALUES
  ('CP(=O)(O)c1ccccc1', 'solubility (mole fraction)', 0.265);

* * *

conditions: in toluene, 293.15 K
METRIC_NAME: solubility (mole fraction)

INSERT INTO results (smiles, experimental_result) VALUES
  ('O=[PH](O)c1ccccc1', 0.0187);

* * *

settings: in n-heptane, 328.25 K
METRIC_NAME: solubility (mole fraction)

INSERT INTO measurements (smiles, experimental_result) VALUES
  ('c1ccc(OP2(Oc3ccccc3)=NP(Oc3ccccc3)(Oc3ccccc3)=NP(Oc3ccccc3)(Oc3ccccc3)=N2)cc1', 0.0069);
